Test system: MM.1S
assayNotes: Tumor cell viability, CCK-8 assay, MM.1S
Assay type: cell-based
assayContext: MM.1S (human multiple myeloma); compound treatment 1uM; 5 days
Experimental: To examine whether the compounds having CRBN-binding activity according to the present invention exert tumor cell apoptosis effects, the assay was conducted using various human cancer cell lines, including human multiple myeloma cell lines (MM.1S and MM.1R-LR), a human breast cancer cell line (MDA-MB-231), a human lung cancer cell line (A549), a human rhabdomyosarcoma cell line (RD), and a human lymphoma cell line (Jeko-1). […]
readoutLabel: Cell viability (% of control)

* O=C1CCC(c2cccc(NS(=O)(=O)c3cccc(NC(=O)c4ccc(CCCCCCCl)cc4)c3)c2)C(=O)N1 (stereo not shown) | 10.8 % of control
* O=C1CCC(c2cccc(NS(=O)(=O)c3cccc(NC(=O)c4ccc(CCl)cc4)c3)c2)C(=O)N1 (stereo not shown) | 97.8 % of control
* CCCCCCCCc1ccc(C(=O)Nc2cccc(S(=O)(=O)Nc3cccc(C4CCC(=O)NC4=O)c3)c2)cc1 (stereo not shown) | 13.3 % of control
* O=C1CCC(c2cccc(NS(=O)(=O)c3cccc(NC(=O)c4ccc(CCCCCCl)cc4)c3)c2)C(=O)N1 (stereo not shown) | 14.9 % of control
